# SYSTEM: GLP-1 receptor (GLP-1R), primary cAMP assay cell line (human, UniProt P43220 24-463)
# EXPERIMENT: cell-based or functional assay
Starred links: 1 amine or outer side, 2 acyl side, 3 side chain; linkers in the order of their positions; H or OH if unused. Non-standard residues stand in square brackets, D forms with d. Groups on a side chain read outwards from the residue. Primed or numbered codes have the meaning given here. No end group written: not given here. *: point of attachment. γGlu = O=C(O)[C@H](CCC(=O)[*:2])N[*:1]; αMeF = C[C@](N)(Cc1ccccc1)C(=O)O; αMeK = C[C@](N)(CCCCN)C(=O)O; Lauroyl = CCCCCCCCCCCC(=O)*; αMeS = C[C@](N)(CO)C(=O)O; PEG2′ = not defined here; Aib = CC(C)(N)C(=O)O
READOUT NAME: cAMP Primary assay EC50, n1 (pM)
# output: bare number, implied unit pM

input: # query: cAMP Primary assay EC50, n1 of entry H[Aib]EGS[αMeF]TSDV[αMeS]SYK([PEG2′-PEG2′-γGlu-Lauroyl])EK([PEG2′-PEG2′-γGlu-Lauroyl])EAA[αMeK]EFIK([PEG2′-PEG2′-γGlu-Lauroyl])FVVEGG-NH2 [SEQ ID NO: 451]
output: 28.8

input: Sample H[Aib]EGS[αMeF]TSDVSK([PEG2′-PEG2′-γGlu-Lauroyl])YLEGEK([PEG2′-PEG2′-γGlu-Lauroyl])A[αMeK]EFIAFK([PEG2′-PEG2′-γGlu-Lauroyl])VEGG-NH2 [SEQ ID NO: 477] — what was its cAMP Primary assay EC50, n1?
output: 226

input: # cAMP Primary assay EC50, n1 lookup, item H[Aib]EGS[αMeF]TSDV[αMeS]SK([PEG2′-PEG2′-γGlu-Lauroyl])LEGEAA[αMeK]K([PEG2′-PEG2′-γGlu-Lauroyl])FIAFK([PEG2′-PEG2′-γGlu-Lauroyl])VEGG-NH2 [SEQ ID NO: 482]
output: 28.3

input: Field request: cAMP Primary assay EC50, n1 | item: H[Aib]EGS[αMeF]TSDV[αMeS]SK([PEG2′-PEG2′-γGlu-Lauroyl])LEK([PEG2′-PEG2′-γGlu-Lauroyl])EAA[αMeK]EFIK([PEG2′-PEG2′-γGlu-Lauroyl])FVVEGG-NH2 [SEQ ID NO: 447]
output: 123
